Biological target: Glucose-6-phosphate 1-dehydrogenase (Homo sapiens, UniProt P11413)
Sequence (P11413 whole entry): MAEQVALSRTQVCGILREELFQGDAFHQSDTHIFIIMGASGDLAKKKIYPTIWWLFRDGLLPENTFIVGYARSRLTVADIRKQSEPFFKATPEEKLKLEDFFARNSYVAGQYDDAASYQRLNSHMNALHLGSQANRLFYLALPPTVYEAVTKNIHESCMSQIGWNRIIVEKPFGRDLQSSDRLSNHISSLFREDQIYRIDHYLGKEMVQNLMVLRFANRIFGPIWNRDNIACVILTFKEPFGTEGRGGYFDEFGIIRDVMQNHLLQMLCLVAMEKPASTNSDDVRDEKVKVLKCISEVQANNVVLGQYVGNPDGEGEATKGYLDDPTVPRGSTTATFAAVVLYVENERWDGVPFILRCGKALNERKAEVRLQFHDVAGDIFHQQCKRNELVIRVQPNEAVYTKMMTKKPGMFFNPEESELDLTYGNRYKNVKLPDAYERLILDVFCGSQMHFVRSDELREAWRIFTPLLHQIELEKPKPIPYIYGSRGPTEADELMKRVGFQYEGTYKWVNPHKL
Test: human G6PD enzyme inhibitors, dose response, selectivity assay for P. falciparum G6PD inhibitor project, biochemical, fluorescence (AID 504792)
Format: functional
Calls of active or inactive are those of the source.
Hello, when you answer, please use one of the following outcomes: active, inactive

Examples from the recorded data:
CCNc1ccccc1CP(=O)(c1ccccc1)c1ccccc1O (stereo unspecified) :: inactive
O=C(COc1cccc2ccccc12)Nc1ccc(Cl)cc1C(=O)O :: inactive
NS(=O)(=O)c1ccc(N/N=C/c2ccc(O)c(O)c2O)c([N+](=O)[O-])c1 :: inactive

Query block: I'd appreciate the recorded outcome for CCN(CC)c1ccc(C(=C2C=CC(=[N+](CC)CC)C=C2)c2ccccc2)cc1 from this test.
Result block: inactive

Query block: Entry CC1CCc2c(nc3sc4c(c3c2N)CCCC4)C1 (stereo unspecified) please
Result block: inactive

Query block: Entry O=c1c2ccccc2sn1-c1nccs1 please
Result block: active

---

Tested on: Vero
Assay: cells
Type: functional
Conditions: Chlorocebus sabaeus
Calls of active or inactive are those of the source.
OBSERVABLE: CC50

These recorded examples may help you get a feel for the data.
Oc1cc(CSc2ccc(Cl)cc2)nc(-c2ccccn2)n1 :: 5.82 µM (active)
CN(C)c1n/c(=N/Cc2ccco2)ss1 :: 23.8 µM (active)
Nc1nc(N)c2cc(Sc3ccc4ccccc4c3)ccc2n1 :: 0.8 µM (active)

Query block: I am curious: what CC50 value has been reported for COc1cccc(/C=C2\SC(=S)N(CCC(=O)NCCc3ccc(O)cc3)C2=O)c1 ?
Result block: 16.1 µM (active)

---

Target: Cytochrome P450 2C19 (Homo sapiens, UniProt P33261)
Sequence (P33261 whole entry): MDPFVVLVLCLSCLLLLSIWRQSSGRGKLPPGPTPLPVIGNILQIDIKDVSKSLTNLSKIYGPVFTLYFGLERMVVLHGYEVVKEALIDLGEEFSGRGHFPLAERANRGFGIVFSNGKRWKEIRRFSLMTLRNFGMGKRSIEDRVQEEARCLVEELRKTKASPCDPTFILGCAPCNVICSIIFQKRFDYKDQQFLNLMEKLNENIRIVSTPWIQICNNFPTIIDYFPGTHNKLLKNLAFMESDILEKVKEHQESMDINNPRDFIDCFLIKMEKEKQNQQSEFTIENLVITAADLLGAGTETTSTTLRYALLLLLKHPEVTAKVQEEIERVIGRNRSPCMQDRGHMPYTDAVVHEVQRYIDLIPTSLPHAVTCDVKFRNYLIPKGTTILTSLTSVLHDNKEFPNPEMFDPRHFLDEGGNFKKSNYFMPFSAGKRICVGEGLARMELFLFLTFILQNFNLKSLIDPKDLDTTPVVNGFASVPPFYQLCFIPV
Assay: Cytochrome panel assay with activity outcomes. Panel member name: p450-cyp2c19 Compounds with AC50 equal or less than 10 uM are considered active
Type: functional
Conditions: read-out: AC50
The following compounds are shown together with reported AC50 values.

COc1ccc2nc(/N=C\N(C)C)sc2c1 :: 22.4 µM (inconclusive)
CCCN(CCC)CCCNC(=O)c1cc2cc3ccc(OC)cc3nc2o1 :: 20 µM (inconclusive)
CCC/C=C(\CCC)C(NP(=O)(c1ccccc1)c1ccccc1)c1ccccc1 (stereo not drawn) :: 20 µM (inconclusive)

Query block: Form field - read-out: AC50; system: Cytochrome P450 2C19 (Homo sapiens, UniProt P33261); submitted item: COc1ccc(NC(=O)C(=O)NNC(=O)c2cccs2)c(OC)c1
Result block: 39.8 µM (inconclusive)

Query block: Entry Cc1cccc(C(=O)NC2CCN(C(=O)N3CCOCC3)CC2)c1 please
Result block: 31.6 µM (inconclusive)

Query block: Entry Cc1ccc(NC(=O)C2CCN(S(C)(=O)=O)CC2)cc1 please
Result block: 20 µM (inconclusive)

Query block: Entry O=c1c(-c2ccccc2)nc2cnc(N3CCNCC3)nc2n1Cc1ccc(F)cc1 please
Result block: 31.6 µM (inconclusive)

---

Biological target: Type-1 angiotensin II receptor (Homo sapiens)
Sequence (P30556 whole entry): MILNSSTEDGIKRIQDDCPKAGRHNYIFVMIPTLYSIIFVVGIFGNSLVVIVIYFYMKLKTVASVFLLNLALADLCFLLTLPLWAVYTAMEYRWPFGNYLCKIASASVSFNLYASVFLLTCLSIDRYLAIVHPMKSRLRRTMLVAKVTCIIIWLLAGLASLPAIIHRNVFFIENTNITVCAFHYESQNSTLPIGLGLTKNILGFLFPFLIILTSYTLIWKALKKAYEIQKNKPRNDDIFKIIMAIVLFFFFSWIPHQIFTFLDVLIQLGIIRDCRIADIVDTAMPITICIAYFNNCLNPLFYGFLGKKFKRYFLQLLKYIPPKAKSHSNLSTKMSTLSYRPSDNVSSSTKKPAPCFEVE
Experiment: AT1 receptor antagonists, dose response, selectivity assay for APJ receptor antagonist project, cell-based, uHTS hits (AID 463214);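 further: antagonist potency against angiotensin II stimulated AT1 response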
Type: functional
The source made the active and inactive calls.
OBSERVABLE: IC50

Oc1cc(CSc2ccc(Cl)cc2)nc(-c2ccccn2)n1 :: 13 µM (active)
Cc1cccc(NC(=S)N/N=C2/CCCCc3ccccc32)c1 :: > 40 µM (not active)

Kindly consider the entry below.
Query block: I am curious: what IC50 value has been reported for NNc1nc(-c2ccccc2)cc(-c2ccccc2)n1 ?
Result block: 13 µM (active)
